Assign IC50 to each entry below.
Biological target: endogenous cellular BACE2 in the Ins1e rat cell line (Rattus norvegicus (Rat))
Test: Assay for BACE inhibition by measuring cellular TMEM27 cleavage (ELISA of shed hTMEM27 from INS-TMEM27 cells)
Conditions: assay a): cellular TMEM27 cleavage, INS-TMEM27 cells (superscript a)

Sample answers from the record:
> print(dat)
                                   compound  meas.value
1  CN1C(=O)C(C)(C)[C@@](C)(c2cc(NC3CCC(CC(=O)O)C3(C)C)ccc2F)N=C1N (stereo partly shown) [Example 116]     2160 nM
2  CN1C(=O)C(C)(C)[C@@](C)(c2cc(NC3CC(C)(C)CC3O)ccc2F)N=C1N (stereo partly shown) [Example 158]      298 nM
3  CCOC(=O)CC1CCC(Nc2ccc(F)c([C@@]3(C)N=C(N)N(C)C(=O)C3(C)C)c2)C1(C)C (stereo partly shown) [Example 98]       57 nM

Then there is this compound:
[Q] Output measured IC50 for this item: Cc1cc(CNc2ccc(F)c([C@@]3(C)N=C(N)N(C)C(=O)C3(C)C)c2)no1 [Example 104]
[A] 4 nM

###

Target: endogenous cellular BACE2 in the Ins1e rat cell line (Rattus norvegicus (Rat), UniProt Q6IE75)
Sequence (Q6IE75 63-514): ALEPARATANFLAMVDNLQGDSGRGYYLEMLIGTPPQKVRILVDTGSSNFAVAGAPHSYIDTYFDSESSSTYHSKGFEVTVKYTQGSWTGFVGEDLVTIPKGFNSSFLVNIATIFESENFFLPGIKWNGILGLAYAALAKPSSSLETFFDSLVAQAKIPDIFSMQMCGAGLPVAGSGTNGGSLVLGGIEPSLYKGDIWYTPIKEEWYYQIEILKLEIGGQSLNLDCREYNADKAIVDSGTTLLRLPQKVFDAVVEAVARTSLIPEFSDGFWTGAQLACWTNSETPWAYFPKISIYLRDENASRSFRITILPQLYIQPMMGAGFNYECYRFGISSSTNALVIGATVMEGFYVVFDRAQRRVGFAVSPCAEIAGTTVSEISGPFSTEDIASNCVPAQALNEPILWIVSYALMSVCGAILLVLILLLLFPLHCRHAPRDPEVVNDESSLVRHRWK
Test: Assay for BACE inhibition by measuring cellular TMEM27 cleavage (ELISA of shed hTMEM27 from INS-TMEM27 cells)
Settings: assay a): cellular TMEM27 cleavage, INS-TMEM27 cells (superscript a)
Please assign No whenever IC50 is at or above 40 nM, and Yes whenever it is below.

> print(dat)
                                   compound  qualitative.label
1  CN1C(=O)C(C)(C)[C@@](C)(c2cc(NCC(F)(F)F)ccc2F)N=C1N                Yes
2  Cc1cc(C)c(Nc2ccc(F)c([C@@]3(C)N=C(N)N(C)C(=O)C3(C)C)c2)cc1C                 No
3  CN1C(=O)C(C)(C)[C@@](C)(c2cc(NCC3CCC3)ccc2F)N=C1N                Yes
4  CN1C(=O)C(C)(C)[C@@](C)(c2cc(NCc3nn(C)cc3Cl)ccc2F)N=C1N                Yes

[Q] Below 40 nM on IC50? Entry CN1C(=O)C(C)(C)[C@@](C)(c2cc(NC(=O)C(C)(O)c3ccc(Cl)cc3)ccc2F)N=C1N (stereo partly drawn)
[A] No

[Q] Hello, I'm reviewing records and need to know if IC50 of Cc1ccc2c(c1)C(Nc1ccc(F)c([C@@]3(C)N=C(N)N(C)C(=O)C3(C)C)c1)CC2(C)C (stereo partly drawn) is below 40 nM. Could you check?
[A] No

[Q] Record CC(=O)OC1CC2CC1CC2Nc1ccc(F)c([C@@]2(C)N=C(N)N(C)C(=O)C2(C)C)c1 (stereo partly drawn) : is its IC50 strictly below 40 nM?
[A] Yes

[Q] Lab log: compare recorded IC50 with 40 nM; is it strictly lower for CCOC(=O)[C@H]1[C@@H]2C[C@@H](O)C(Nc3ccc(F)c([C@@]4(C)N=C(N)N(C)C(=O)C4(C)C)c3)[C@@H]21 (stereo partly drawn) ?
[A] Yes
